- test.details: Single dose PO or IV plasma pharmacokinetics and tolerability in BALB/c mice
- condition.info: male, BALB/c, mouse, in vivo, po, 180 mg/kg

chem.smiles | scale.unit | Cmax
CCCCCCCCCCCCCCCCCCOC[C@H](COP(=O)(O)OC[C@H]1O[C@@](C#N)(c2ccc3c(N)ncnn23)[C@H](O)[C@@H]1O)OCc1ccccc1 | µM | 17

###

- Tested on: A2T2-A549 cells
- test.details: Cell viability assay (CellTiter-Glo), A2T2-A549
- condition.info: A2T2-A549, CellTiter-Glo, 48 h incubation

compound | operator.symbol | CC50 (µM)
CCCCCCCCC=CCCCCCCCCOCC(COP(=O)(O)OCC1OC(C#N)(c2ccc3c(N)ncnn23)C(O)C1O)OCc1ccc(OC)c(F)c1 (centres unmarked) | > | 100
CCCCCCCCCCCCCCCCCCOCC(COP(=O)(O)OC[C@H]1O[C@@](C#N)(c2ccc3c(N)ncnn23)[C@H](O)[C@@H]1O)OCc1ccc(C#N)cc1 (some centres unmarked) | = | 82.3

###

EC50 by entry:
- Tested on: SARS-CoV-2 isolate USA-WA1/2020
- test.details: microbe, parasite or virus in culture
- condition.info: Severe acute respiratory syndrome coronavirus 2, Vero/TMPRSS2, read-out: EC50 μM ± SD

compound | scale.unit | EC50
CCCCCCCCCCCCCCCCCCOC[C@H](COP(=O)(O)OC[C@H]1O[C@@](C#N)(c2ccc3c(N)ncnn23)[C@H](O)[C@@H]1O)OCc1ccccc1 | µM | 0.104
N#C[C@@]1(c2ccc3c(N)ncnn23)O[C@H](CO)[C@@H](O)[C@H]1O [RVn, reference compound] | µM | 1.08

###

- test.details: Single dose PO or IV plasma pharmacokinetics and tolerability in BALB/c mice
- condition.info: male, BALB/c, mouse, in vivo, po, 20 mg/kg
assay.endpoint: AUC (µM·h)

chem.smiles | obs.value
CCCCCCCCCCCCCCCCCCOC[C@H](COP(=O)(O)OC[C@H]1O[C@@](C#N)(c2ccc3c(N)ncnn23)[C@H](O)[C@@H]1O)OCc1ccccc1 | 90.1

###

- test.details: in vivo
- condition.info: male, BALB/c, mouse, po, 180 mg/kg

chem.smiles | scale.unit | Vd/F
CCCCCCCCCCCCCCCCCCOC[C@H](COP(=O)(O)OC[C@H]1O[C@@](C#N)(c2ccc3c(N)ncnn23)[C@H](O)[C@@H]1O)OCc1ccccc1 | L/kg | 8.61

###

- test.details: Single dose PO or IV plasma pharmacokinetics and tolerability in BALB/c mice
- condition.info: male, BALB/c, mouse, in vivo, iv, 7 mg/kg

chem.smiles | AUC
CCCCCCCCCCCCCCCCCCOC[C@H](COP(=O)(O)OC[C@H]1O[C@@](C#N)(c2ccc3c(N)ncnn23)[C@H](O)[C@@H]1O)OCc1ccccc1 | 46.6 µM·h

###

- test.details: in vivo
- condition.info: male, BALB/c, mouse, po, 60 mg/kg

molecule | half-life
CCCCCCCCCCCCCCCCCCOC[C@H](COP(=O)(O)OC[C@H]1O[C@@](C#N)(c2ccc3c(N)ncnn23)[C@H](O)[C@@H]1O)OCc1ccccc1 [Compound V2043] | 6.31 h

###

- test.details: Single dose PO or IV plasma pharmacokinetics and tolerability in BALB/c mice
- condition.info: male, BALB/c, mouse, in vivo, po, 60 mg/kg

molecule | Cmax / µM
CCCCCCCCCCCCCCCCCCOC[C@H](COP(=O)(O)OC[C@H]1O[C@@](C#N)(c2ccc3c(N)ncnn23)[C@H](O)[C@@H]1O)OCc1ccccc1 [Compound V2043] | 20.3

###

Cmax by entry:
- test.details: Single dose PO or IV plasma pharmacokinetics and tolerability in BALB/c mice
- condition.info: Oral, 20 mg/kg, BALB/c mice

compound | Cmax, µM
CCCCCCCCC=CCCCCCCCCOCC(COP(=O)(O)OCC1OC(C#N)(c2ccc3c(N)ncnn23)C(O)C1O)OCc1ccc(OC)c(F)c1 (centres unmarked) | 1.78
CCCCCCCCCCCCCCCCCCOCC(COP(=O)(O)OC[C@H]1O[C@@](C#N)(c2ccc3c(N)ncnn23)[C@H](O)[C@@H]1O)OCc1ccc(C#N)cc1 (some centres unmarked) | 8.83

###

- test.details: Cell viability assay (CellTiter-Glo), A2T2-A549
- condition.info: human, A2T2-A549 cells
CC50 at 48 h by entry:

molecule | CC50 at 48 h
N#C[C@@]1(c2ccc3c(N)ncnn23)O[C@H](CO)[C@@H](O)[C@H]1O [RVn, reference compound] | > 100 µM
CCCCCCCCCCCCCCCCCCOC[C@H](COP(=O)(O)OC[C@H]1O[C@@](C#N)(c2ccc3c(N)ncnn23)[C@H](O)[C@@H]1O)OCc1ccccc1 | > 100 µM

###

- System: SARS-CoV-2 isolate USA-WA1/2020
- test.details: microbe, parasite or virus in culture
- condition.info: Severe acute respiratory syndrome coronavirus 2, read-out: EC50 μM ± SD
assay.endpoint: EC50 (µM)

compound | obs.value
N#C[C@@]1(c2ccc3c(N)ncnn23)O[C@H](CO)[C@@H](O)[C@H]1O [RVn, reference compound] | 3.01
CCCCCCCCCCCCCCCCCCOC[C@H](COP(=O)(O)OC[C@H]1O[C@@](C#N)(c2ccc3c(N)ncnn23)[C@H](O)[C@@H]1O)OCc1ccccc1 [Compound V2043] | 0.566
CC(C)C(=O)OC[C@H]1O[C@@](C#N)(c2ccc3c(N)ncnn23)[C@H](O)[C@@H]1O [Obeldesivir GS-5245, reference compound] | 1.2

###

- test.details: Single dose PO or IV plasma pharmacokinetics and tolerability in BALB/c mice
- condition.info: Oral, 60 mg/kg, BALB/c mice
assay.endpoint: Cmax

compound | obs.value
CCCCCCCCCCCCCCCCCCOCC(COP(=O)(O)OC[C@H]1O[C@@](C#N)(c2ccc3c(N)ncnn23)[C@H](O)[C@@H]1O)OCc1ccc(C#N)cc1 (some centres unmarked) [Compound V2067] | 24.9 µM
CCCCCCCCC=CCCCCCCCCOCC(COP(=O)(O)OCC1OC(C#N)(c2ccc3c(N)ncnn23)C(O)C1O)OCc1ccc(OC)c(F)c1 (centres unmarked) [Compound V2053] | 7.66 µM

###

- Tested on: Vero-TMPRSS2 cells
- test.details: Cell viability assay (CellTiter-Glo), Vero-TMPRSS2
- Assay type: cell-based, African green monkey
- condition.info: 48 h incubation
CC50 by entry:

compound | CC50
CCCCCCCCCCCCCCCCCCOCC(COP(=O)(O)OC[C@H]1O[C@@](C#N)(c2ccc3c(N)ncnn23)[C@H](O)[C@@H]1O)OCc1ccc(C#N)cc1 (some centres unmarked) | 57 µM
CCCCCCCCC=CCCCCCCCCOCC(COP(=O)(O)OCC1OC(C#N)(c2ccc3c(N)ncnn23)C(O)C1O)OCc1ccc(OC)c(F)c1 (centres unmarked) | > 100 µM

###

- test.details: in vivo
- condition.info: male, BALB/c, mouse, po, 60 mg/kg

chem.smiles | Vd/F
CCCCCCCCCCCCCCCCCCOC[C@H](COP(=O)(O)OC[C@H]1O[C@@](C#N)(c2ccc3c(N)ncnn23)[C@H](O)[C@@H]1O)OCc1ccccc1 | 3.04 L/kg

###

- test.details: in vivo
- condition.info: male, BALB/c, mouse, po, 20 mg/kg

chem.smiles | scale.unit | Vd/F
CCCCCCCCCCCCCCCCCCOC[C@H](COP(=O)(O)OC[C@H]1O[C@@](C#N)(c2ccc3c(N)ncnn23)[C@H](O)[C@@H]1O)OCc1ccccc1 | L/kg | 1.68

###

- test.details: in vivo
- condition.info: male, BALB/c, mouse, po, 180 mg/kg

chem.smiles | half-life
CCCCCCCCCCCCCCCCCCOC[C@H](COP(=O)(O)OC[C@H]1O[C@@](C#N)(c2ccc3c(N)ncnn23)[C@H](O)[C@@H]1O)OCc1ccccc1 | 7.06 h

Ref: paper PMC11459966
